target-system: DS-Cav1 (RSV F-protein, pre-form, in-house) (respiratory syncytial virus (RSV), UniProt P03420 26-513)
Sequence (P03420 26-524): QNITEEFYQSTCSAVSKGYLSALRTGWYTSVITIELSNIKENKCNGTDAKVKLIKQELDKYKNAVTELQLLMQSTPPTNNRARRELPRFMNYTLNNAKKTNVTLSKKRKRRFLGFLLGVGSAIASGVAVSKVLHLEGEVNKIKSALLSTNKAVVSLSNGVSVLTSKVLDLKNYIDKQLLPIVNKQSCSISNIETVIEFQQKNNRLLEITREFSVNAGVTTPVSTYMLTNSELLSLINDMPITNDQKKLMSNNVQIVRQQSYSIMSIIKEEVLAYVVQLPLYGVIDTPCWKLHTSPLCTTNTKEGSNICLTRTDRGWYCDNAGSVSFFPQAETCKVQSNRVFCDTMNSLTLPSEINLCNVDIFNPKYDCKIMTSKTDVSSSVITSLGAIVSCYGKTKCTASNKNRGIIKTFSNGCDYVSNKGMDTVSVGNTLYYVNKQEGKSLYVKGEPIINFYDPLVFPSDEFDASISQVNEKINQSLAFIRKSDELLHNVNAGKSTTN
assay: ELISA, coated DS-Cav1, IgG titrated
Items are presented alongside their recorded Kd.
property: Kd

{"binder": "3E7 (antibody, V domains shown, IgG made in Expi293; also called #51; 51) VH: EVQLVESGTEVKKPGASVKVSCKASGYTFTDYGLSWVRQAPGHGLEWMGWITAYNGDTNYAQKFQDRLSVTTDISTSTAYMELRSLKSDDTAVYYCARHVFCSGDGCYSGLGSWGQGTLVTVSS VL: QSVLTQPPSASGAPGQRVIISCSGSSSNVGSNTVNWYQQLPGTAPKLLIYDKNERPSGVPDRFSASKSGTSSSLAIGGLRSEDEADYYCGTWDDNLNGWVFGGGTKLTVLG", "result": "~370 pM"}
{"binder": "12B11 (antibody, V domains shown, IgG made in Expi293; also called #15; 15) VH: EVQLVESGGGVVQPGRSLRLACAASGFTFNSYAMHWVRQAPGKGLEWVSSITGGSSYVDYSASVKGRFTISRDNAQSSLYLQMNSLRAEDTAVYYCARDMYGLGSYYSPNYFDPWGQGTLVTVSS VL: SYELTQPPSVSGAPGQRVTISCTGSSSNIGAGYDVHWYQQLPGRAPKLLIFANTNRPSGVPDRFSGSKSGTSASLAITGLQAEDEADYYCQSYDSSLSYVFGTGTKVTVLG", "result": "~720 pM"}
{"binder": "#33m (antibody, V domains shown, Germline-edited (m) form of 4G1, heavy chain edited; IgG; also called 4G1 (modified)) VH: EVQLVESGGGLVKPGGSLRLSCAASGFRLSSYGMNWVRQAPGKGLEWVSSISASSSFINYADSVRDRFTISRDNAKNSLYLQMNSLRAEDTAVYYCARDDYGSGSYSNWFDPWGQGTLVTVSS VL: QSVLTQPPSVSGAPGQRVTISCTGNSSNLGAGYDVHWYQQLPGRAPKLLIFANTNRPSGVPDRFSGSKSGASASLAITSLQADDEADYYCQSYDRSLSHVFGTGTKVTVLG", "result": "~970 pM"}
{"binder": "5C7 (antibody, V domains shown, IgG made in Expi293; also called #62; 62) VH: QVQLQQSGSEVKKPGASVKVSCKASGYTFGHYGISWVRQAPGQGLEWMAWISAYNGNTDSIQKVQGRVTMTTDTSTNTAYLELRSLRSDDTAVYYCVRDVPATGGAATADYWGQGTLVTVSS VL: DVVMTQSPLSLPVPLGQPASISCRSSQSLVHSDGNTYLSWFQQRPGQSPRRLIYKVSDRDSGVPDRFSGSGSGTDFTLKISRVEAEDVGVYYCMQVTHWPRTFGQGTRLEIKR", "result": "~840 pM"}
{"binder": "#50m (antibody, V domains shown, Germline-edited (m) form of 2F8, light chain edited; IgG; also called 2F8 (modified)) VH: QVQLVQSGAEVKKPGASVKVSCKASGYTFTDYGLSWVRQAPGHGLEWMGWITAYNGDTNYAQKFQDRLSVTTDISTSTAYMELRSLKSDDTAVYYCARHVFCSGDGCYSGLGSWGQGTLVTVSS VL: QSVLTQPPSASGAPGQRVIISCSGSSSNVGSNTVNWYQQLPGTAPKLLIYDKNERPSGVPDRFSASKSGTSSSLAIGGLRSEDEADYYCGTWDDNLNGWVFGGGTKLTVLG", "result": "~1080 pM"}

Just for reference, patent US20240182547A1 is where these values come from.
